assay: Iron (III) complex stability constant Logβ3; format: physicochemical
Structures can show the parent of a compound that is named as a salt.
parameter: Logβ3

>>> df
                                   molecule  parameter  recorded_measurement
0                     O=c1ccn(CCCO)c(CO)c1O      Logβ3                 35.25
1  CCC(O)c1c(O)c(=O)cc(C)n1C (stereo not drawn) [CP374, hydrochloride]      Logβ3                 35.03
2  CCn1c(C)cc(=O)c(O)c1CO [CP369, hydrochloride]      Logβ3                  35.6
3  CCc1c(O)c(=O)ccn1CC [CP94, 1,2-diethyl-3-hydroxypyridin-4-one, reference compound]      Logβ3                  36.7
4  O=c1ccn(CCO)c(C(O)c2ccccc2)c1O (stereo not drawn) [Novartis bidentate ligand (3), reference compound]      Logβ3                 35.57
5  Cc1c(O)c(=O)ccn1C [CP20, reference compound]      Logβ3                  36.3
6  Cc1cc(=O)c(O)c(CO)n1C [CP360, hydrochloride]      Logβ3                 35.51
7  CNC(=O)c1c(O)c(=O)cc(C)n1C [CP502, hydrochloride]      Logβ3                 35.78
8  Cc1cc(=O)c(O)c(C(=O)N(C)C)n1C [CP508, hydrochloride]      Logβ3                 35.13

====

assay: pKa of the ligand; type: physicochemical; conditions: method marked (p), second pKa; read-out: pKa, second value (p)
Structures can show the parent of a compound that is named as a salt.
parameter: pKa

In [3]: df
Out[3]:
                                   molecule  recorded_measurement
0  Cc1cc(=O)c(O)c(C(=O)N(C)C)n1C [CP508, hydrochloride]                   8.1
1  Cc1cc(=O)c(O)c(C(=O)NC(C)C)n1C [CP504, hydrochloride]                  8.74
2  O=c1ccn(CCO)c(C(O)c2ccccc2)c1O (centres unmarked) [Novartis bidentate ligand (3), reference compound]                  8.38
3  COCc1cc(=O)c(O)c(COC)n1C [CP388, hydrochloride]                  8.87
4  CNC(=O)c1c(O)c(=O)cc(C)n1C [CP502, hydrochloride]                  8.38
5  Cn1ccc(=O)c(O)c1CO [CP364, hydrochloride]                  9.22
6  O=C(OCCCn1ccc(=O)c(O)c1CO)c1ccccc1 [CP367, hydrochloride]                  9.07
7  COC(C)c1c(O)c(=O)cc(C)n1C (centres unmarked) [CP363, hydrochloride]                  9.44

====

experiment: pKa of the ligand; format: physicochemical; conditions: method marked (s), first pKa; read-out: pKa, first value (s)
Structures can show the parent of a compound that is named as a salt.
parameter: pKa

>>> df
                                   compound  recorded_measurement
0  CNC(=O)c1c(O)c(=O)cc(C)n1C [CP502, hydrochloride]                  2.64
1  O=c1ccn(CCO)c(C(O)c2ccccc2)c1O (centres unmarked) [Novartis bidentate ligand (3), reference compound]                   2.6
2  O=C(OCCCn1ccc(=O)c(O)c1CO)c1ccccc1 [CP367, hydrochloride]                   2.7
3  COC(C)c1c(O)c(=O)cc(C)n1C (centres unmarked) [CP363, hydrochloride]                  3.22
4  Cc1cc(=O)c(O)c(C(=O)NC(C)C)n1C [CP504, hydrochloride]                  2.64
5  Cc1cc(=O)c(O)c(C(=O)N(C)C)n1C [CP508, hydrochloride]                  2.61
6  CCC(O)c1c(O)c(=O)cc(C)n1C (centres unmarked) [CP374, hydrochloride]                  2.78
7  COCc1cc(=O)c(O)c(COC)n1C [CP388, hydrochloride]                  2.73
